# reported DC50; entries follow
molecular target: BRAF V600E (Homo sapiens, UniProt P15056+Q96SW2, V600E); construct: knock-in of the HiBiT tag to the endogenous BRAF V600E locus; host or cells: A375.10 (A375 clonal line, CRISPR HiBiT knock-in at the endogenous BRAF V600E locus); experiment: BRAF V600E HiBiT Degradation Assay; type: cell-based; conditions: A375.10 cells, BRAF V600E, 6 hours; inflection point; read-out: HiBiT-Degradation A375.10 BRAF 6 hours IP
Sequence (P15056 whole entry V600E): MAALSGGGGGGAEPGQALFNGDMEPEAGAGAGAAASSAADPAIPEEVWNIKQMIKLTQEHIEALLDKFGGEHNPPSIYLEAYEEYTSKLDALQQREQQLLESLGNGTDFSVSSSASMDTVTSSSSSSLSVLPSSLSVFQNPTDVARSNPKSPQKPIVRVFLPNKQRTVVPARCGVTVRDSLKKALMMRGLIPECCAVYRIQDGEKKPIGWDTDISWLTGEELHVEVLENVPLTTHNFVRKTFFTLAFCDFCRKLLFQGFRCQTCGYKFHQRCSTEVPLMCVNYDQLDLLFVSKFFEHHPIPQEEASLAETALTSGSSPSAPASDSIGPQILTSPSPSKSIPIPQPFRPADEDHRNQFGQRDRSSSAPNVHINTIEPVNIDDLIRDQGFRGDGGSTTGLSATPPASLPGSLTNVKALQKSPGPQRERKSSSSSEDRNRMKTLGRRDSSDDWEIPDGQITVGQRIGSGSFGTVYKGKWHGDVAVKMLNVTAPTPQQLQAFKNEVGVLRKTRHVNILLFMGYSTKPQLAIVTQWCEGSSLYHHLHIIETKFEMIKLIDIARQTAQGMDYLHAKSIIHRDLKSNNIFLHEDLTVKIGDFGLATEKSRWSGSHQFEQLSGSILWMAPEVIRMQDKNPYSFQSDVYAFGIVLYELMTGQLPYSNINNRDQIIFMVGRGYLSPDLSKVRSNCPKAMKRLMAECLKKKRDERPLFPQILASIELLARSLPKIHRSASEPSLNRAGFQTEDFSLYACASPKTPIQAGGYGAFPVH
Sequence (Q96SW2 whole entry): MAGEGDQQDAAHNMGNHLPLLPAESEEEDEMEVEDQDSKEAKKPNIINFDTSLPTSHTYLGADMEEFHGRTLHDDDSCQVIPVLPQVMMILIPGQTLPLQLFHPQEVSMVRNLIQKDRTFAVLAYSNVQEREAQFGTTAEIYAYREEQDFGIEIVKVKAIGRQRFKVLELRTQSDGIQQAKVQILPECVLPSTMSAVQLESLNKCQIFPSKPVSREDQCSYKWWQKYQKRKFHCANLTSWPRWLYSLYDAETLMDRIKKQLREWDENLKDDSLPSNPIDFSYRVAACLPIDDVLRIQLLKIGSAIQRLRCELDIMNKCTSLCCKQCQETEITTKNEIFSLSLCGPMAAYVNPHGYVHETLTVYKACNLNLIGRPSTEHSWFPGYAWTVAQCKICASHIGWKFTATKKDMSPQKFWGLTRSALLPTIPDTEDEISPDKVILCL
Sequence (Q16531 whole entry partner): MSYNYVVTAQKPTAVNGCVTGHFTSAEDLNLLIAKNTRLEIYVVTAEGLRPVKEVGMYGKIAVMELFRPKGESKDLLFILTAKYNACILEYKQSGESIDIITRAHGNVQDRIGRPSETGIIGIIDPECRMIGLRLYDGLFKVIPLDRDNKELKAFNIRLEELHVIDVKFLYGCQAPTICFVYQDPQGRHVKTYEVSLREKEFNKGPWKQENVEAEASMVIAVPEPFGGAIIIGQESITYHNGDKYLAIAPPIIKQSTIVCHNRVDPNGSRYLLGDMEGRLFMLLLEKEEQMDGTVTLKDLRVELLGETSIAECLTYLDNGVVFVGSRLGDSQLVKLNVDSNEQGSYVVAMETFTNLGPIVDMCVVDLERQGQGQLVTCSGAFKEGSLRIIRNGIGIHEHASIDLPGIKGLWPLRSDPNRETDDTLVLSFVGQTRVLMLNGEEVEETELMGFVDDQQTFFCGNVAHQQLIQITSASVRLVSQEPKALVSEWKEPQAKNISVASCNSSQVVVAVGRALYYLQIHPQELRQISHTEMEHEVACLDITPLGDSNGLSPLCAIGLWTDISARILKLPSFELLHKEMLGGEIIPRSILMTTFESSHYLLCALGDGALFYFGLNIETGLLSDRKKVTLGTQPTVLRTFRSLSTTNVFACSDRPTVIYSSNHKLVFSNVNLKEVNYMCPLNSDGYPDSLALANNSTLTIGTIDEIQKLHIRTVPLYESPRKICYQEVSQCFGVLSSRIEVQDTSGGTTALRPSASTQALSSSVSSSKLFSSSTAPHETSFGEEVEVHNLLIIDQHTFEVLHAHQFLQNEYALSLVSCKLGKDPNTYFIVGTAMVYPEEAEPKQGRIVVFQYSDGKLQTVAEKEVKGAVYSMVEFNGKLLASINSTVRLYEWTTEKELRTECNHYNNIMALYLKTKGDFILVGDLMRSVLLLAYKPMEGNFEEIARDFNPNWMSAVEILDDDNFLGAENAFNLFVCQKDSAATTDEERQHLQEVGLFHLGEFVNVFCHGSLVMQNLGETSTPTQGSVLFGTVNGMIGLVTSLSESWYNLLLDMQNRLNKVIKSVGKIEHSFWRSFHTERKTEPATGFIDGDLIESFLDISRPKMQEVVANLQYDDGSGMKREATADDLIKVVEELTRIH

Compound | DC50
CO[C@@H]1CCN(S(=O)(=O)Nc2ccc(F)c(Oc3ccc4ncn([C@H]5COC6(CCN(C7CCC(c8cc9c(cc8F)c(N8CCC(=O)NC8=O)nn9C)CC7)CC6)C5)c(=O)c4c3)c2C#N)C1 (single isomer, unassigned) | < 1 µM
CCN(C)S(=O)(=O)Nc1ccc(F)c(Oc2ccc3ncn(C4CC5(CCN(C6CCC(c7ccc(NC8CCC(=O)NC8=O)cc7F)CC6)CC5)C4)c(=O)c3c2)c1C#N (single isomer, unassigned) [Compound 7] | < 1 µM
CCN(C)S(=O)(=O)Nc1ccc(F)c(Oc2ccc3ncn([C@H]4COC5(CCN(C6CCC(c7ccc(NC8CCC(=O)NC8=O)cc7F)CC6)CC5)C4)c(=O)c3c2)c1F (single isomer, unassigned) | < 1 µM
CCN(C)S(=O)(=O)Nc1ccc(F)c(Oc2ccc3ncn(C4CC5(CCN(C6CCC(c7cc8c(cc7F)c(N7CCC(=O)NC7=O)nn8C)CC6)CC5)C4)c(=O)c3c2)c1C#N (single isomer, unassigned) [Compound 9] | < 1 µM

# input Look up DC50 for this compound: CCN(C)S(=O)(=O)Nc1ccc(F)c(Oc2ccc3ncc([C@H]4COC5(CCN(C6CCC(c7cc8c(cc7F)c(N7CCC(=O)NC7=O)nn8C)CC6)CC5)C4)nc3c2)c1C#N (single isomer, unassigned)
# output < 1 µM

# input Any idea what DC50 was measured for CCN(C)S(=O)(=O)Nc1ccc(F)c(Oc2ccc3ncn([C@H]4CCC5(CCN(C6CCC(c7ccc(NC8CCC(=O)NC8=O)cc7F)CC6)CC5)C4)c(=O)c3c2)c1C#N (single isomer, unassigned) ?
# output < 1 µM

# input Sample CN(CCO)S(=O)(=O)Nc1ccc(F)c(Oc2ccc3ncn(C4CC5(CCN(C6CCC(c7ccc(NC8CCC(=O)NC8=O)cc7F)CC6)CC5)C4)c(=O)c3c2)c1C#N (single isomer, unassigned) — what was its DC50?
# output < 1 µM

# input Please look up its DC50: CO[C@H]1CCN(S(=O)(=O)Nc2ccc(F)c(Oc3ccc4ncn(C5CC6(CCN(C7CCC(c8cc9c(cc8F)c(N8CCC(=O)NC8=O)nn9C)CC7)CC6)C5)c(=O)c4c3)c2C#N)C1 (single isomer, unassigned) [Compound 104]
# output < 1 µM

# input If you can, please state the reported DC50 value of CCN(C)S(=O)(=O)Nc1ccc(F)c(Oc2ccc3ncn([C@H]4CCC5(CCN(C6CCC(c7cc8c(cc7F)c(N7CCC(=O)NC7=O)nn8C)CC6)CC5)C4)c(=O)c3c2)c1C#N (single isomer, unassigned) .
# output < 1 µM

Attribution: patent US20260297060A1
